tested on: SF-539 CNS; test: NCI-60 one-dose screen, 48 h; details: 10 µM unless noted
About 83,000 compounds went through this panel and 20% of them were active in at least one assay; those are over-represented in the sample as a whole. Active and inactive are the calls of the source. The calls were made as follows: active = growth percent below 10; inactive = the rest.
Can you answer with just one of these options? active, inactive

As a guide, the following entries are already answered.
CCOC(=O)CN1/C(=N/c2sc3c(c2C(=O)OCC)CCN(C(=O)OCC)C3)SC(=O)/C1=C\C(=O)OC: inactive
COc1ccc(Nc2[nH]n3c(=O)cc(-c4ccccc4)nc3c2C(=O)Nc2ccc(C)cc2)c(OC)c1: inactive
COc1ccc(S(=O)(=O)Nc2cc(/C=C\c3cc(OC)c(OC)c(OC)c3)cc(OC)c2OC)cc1: active
O=C(CN1CCN(c2cc3c(cc2F)c(=O)c(C(=O)N/N=C/c2ccccc2O)cn3C2CC2)CC1)N/N=C\c1ccccc1O: inactive
COc1cc(-c2nn(-c3cccc(NC(=O)Nc4ccc(Cl)c(C(F)(F)F)c4)c3)cc2-c2ccncc2)ccc1Cl: active

// param item: `COc1ccc(NC(=O)c2cc(OC)c(OC)c(OC)c2)cc1O` ; yields the recorded call inactive

What did the test return for `CC(C)(C)n1cc(-c2ccnc(NCCCNS(=O)(=O)c3ccc(Br)cc3)c2)c(-c2cccc(O)c2)n1` ? inactive

---

Tested on: MCF7 breast
Assay: NCI-60 one-dose screen, 48 h
Details: 10 µM unless noted
Description: Growth inhibition of the MCF7 human tumor cell line is measured as a screen for anti-cancer activity. Cells are grown in 96 well plates and exposed to the test compound for 48 hours. Compounds are tested at a single concentration, which is 10^-5 M for most compounds. The reported endpoint is percent growth (GI% or GIPRCNT), where numbers from 0 - 100% represent growth inhibition, and numbers from -100% - 0 represent cell death. For example, a value of 40 represents 60% growth inhibition. […]
The panel holds about 83,000 compounds, 20% with a hit somewhere; the sample as a whole holds those more often. Activity calls are given as the source filed them. Rule for the calls: active = growth percent below 10; inactive = the rest.
Thanks in advance; please answer with one of these: 1.0 = active, 0.0 = inactive

// below: answered compounds
O=[N+]([O-])c1ccc(/C=C/C2(CCl)OCCO2)cc1: 0.0
CN1C=CN(Cc2ccc(-c3ccccn3)nc2)[CH-]1.CN1C=CN(Cc2ccc(-c3ccccn3)nc2)[CH-]1.[Au+3]: 1.0

# fetch the recorded call for `CC(C)NCCCNC1=C(Cl)C(=O)c2ccccc2C1=O` here 0.0

---

Each record here notes measured growth.
test system: RPMI-8226 leukemia; assay: NCI-60 one-dose screen, 48 h (100 = growth as untreated, 0 = no growth, -100 = all killed); conditions: 10 µM unless noted
This is part of a sample that, as a whole, favours compounds with a hit. Of some 83,000 tested, about 20% had one in any assay.
Give the value, in units of %, as a plain number.

COc1ccc2c(c1)C(c1cc(OC)c3c(c1)OCO3)C1=C(COC1=O)N2 (stereo not drawn): 22.1
O=C(NNC(=S)Nc1ccccc1)c1cc2ccc1CCc1ccc(cc1)CC2: 46.4
CCCC(=O)Oc1ccc(/C(=C(\C)c2ccccc2)c2ccc(OCCN(CC)CC)cc2)cc1: 55.4
O=C1/C(=C/c2ccccc2)Oc2ccc(O)c(I)c21: 95.4
O=S(=O)(NCCNc1nccc(-c2c(-c3cccc(O)c3)nc3sccn23)n1)c1ccc(F)cc1: 76.2
CC(C)(C)n1cc(-c2ccnc(NCCNS(=O)(=O)c3ccc(C(F)(F)F)cc3)c2)c(-c2cccc(O)c2)n1: 4.88

Find the recorded growth belonging to CSc1nc2c(c(=O)[nH]1)C(c1ccc(C)cc1)C=C(C(=O)O)N2 (stereo not drawn) and report it. 112

Reported growth, molecule `O=C(NS(=O)(=O)c1ccccc1)n1cc(-c2ccncc2)c(-c2ccc(Cl)c(O)c2)n1` : ____ 97.4

I am curious: what growth value has been reported for `CCC(=O)Oc1ccc(/C(=C(/C)Cc2cccc(OC)c2)c2ccc(OCCN(C)C)cc2)cc1` ? 70.7

Bench note: what growth did `Cc1ccc(CSC(=N)N)cc1C` show? 78.7

Given the entry `COc1cc(-c2nc(N=Nc3c(O)[nH]c4ccc(Br)cc34)[nH]c(=O)c2C#N)cc(OC)c1OC` , report its measured growth. 98.2

Item `COc1ccc(C(=O)c2cc(OC)c(OC)c(OC)c2OC)cc1O` has what recorded growth? 44.7

Entry `COc1cc(NC(=O)SC2=NCCS2)cc(OC)c1` has what growth? 63.2
